Origin of measurements: patent US12473295B2

molecular target: menin/MLL (terbium chelate-labeled menin, FITC-MBM1 peptide) (Homo sapiens (Human)); assay: Menin/MLL homogenous time-resolved fluorescence (HTRF) assay; format: binding; settings: HTRF-30 min incubation IC50, 30 min incubation;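 further: IC50 from percent inhibition of HTRF signal, normalized between wells without competitor and wells with a saturating competitor that displaces FITC-MBM1 from His-tagged menin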
Sequence (O00255 other isoform, or with tags, fused parts or gaps): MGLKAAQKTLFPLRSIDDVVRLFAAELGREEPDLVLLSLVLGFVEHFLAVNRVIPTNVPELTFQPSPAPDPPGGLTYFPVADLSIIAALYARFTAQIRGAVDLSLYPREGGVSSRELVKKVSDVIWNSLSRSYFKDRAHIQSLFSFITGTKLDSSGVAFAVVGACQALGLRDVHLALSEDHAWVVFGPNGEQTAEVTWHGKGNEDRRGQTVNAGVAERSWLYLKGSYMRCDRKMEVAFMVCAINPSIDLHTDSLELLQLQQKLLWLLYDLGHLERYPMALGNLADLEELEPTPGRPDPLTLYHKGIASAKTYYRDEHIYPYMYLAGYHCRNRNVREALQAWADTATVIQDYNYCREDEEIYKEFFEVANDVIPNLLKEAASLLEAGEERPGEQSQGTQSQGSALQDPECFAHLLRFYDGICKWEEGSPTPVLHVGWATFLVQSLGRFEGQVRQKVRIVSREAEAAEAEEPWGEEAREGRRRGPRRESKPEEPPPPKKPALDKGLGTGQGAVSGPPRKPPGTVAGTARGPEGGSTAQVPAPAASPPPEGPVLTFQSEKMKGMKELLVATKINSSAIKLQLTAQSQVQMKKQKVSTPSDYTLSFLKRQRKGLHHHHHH
Structures can show the parent of a compound that is named as a salt.
valueType: IC50 (nM)

compound: CCN(C(=O)c1cc(F)ccc1Oc1nncnc1N1CCC2(C1)CN([C@@H](C[C@@H](CN(C)C)OC)C(C)C)C2)C(C)C (single isomer, unassigned)
measurement: 15.4
//
compound: CC(C)[C@@H](CCCN(C)C[C@H](C)C(N)=O)N1CC2(CCN(c3ncnnc3Oc3ccc(F)cc3C(=O)N(C(C)C)C(C)C)C2)C1 (single isomer, unassigned)
measurement: 0.21
//
compound: CC(C)[C@@H](CCCN(C)CCC(=O)N(C)C)N1CC2(CCN(c3ncnnc3Oc3ccc(F)cc3C(=O)N(C(C)C)C(C)C)C2)C1 (single isomer, unassigned)
measurement: 0.07
//
compound: CCN(C(=O)c1cc(F)ccc1Oc1nncnc1N1CCC2(C1)CN([C@H](CCCN(CCOC)CCOC)C(C)C)C2)C(C)C [Compound 90, formate]
measurement: 0.16

###

The following compounds are listed with their measured half-life values.
experiment: Mouse PK (in vivo T1/2 and oral bioavailability); details: fasted male CD-1 mice, single IV 0.5 or 1.0 mg/kg, formulating agent HP-β-CD
valueType: half-life (h)

compound: CCN(C(=O)c1cc(F)ccc1Oc1nncnc1N1CCC2(C1)CN([C@H](CCCN[C@H](C)COC)C(C)C)C2)C(C)C.O=C(O)/C=C/C(=O)O [Compound 112]
unitSpec: h
reportedRelation: =
measurement: 6.2
//
compound: CC(C)[C@@H](CCCN(C)C)N1CC2(CCN(c3ncnnc3Oc3ccc(F)cc3C(=O)N(C(C)C)C(C)C)C2)C1 (single isomer, unassigned) [Compound 102]
unitSpec: h
reportedRelation: =
measurement: 11
//
compound: CCN(C(=O)c1cc(F)ccc1Oc1nncnc1N1CCC2(C1)CN([C@H](CCCN(C)CCNC(C)=O)C(C)C)C2)C(C)C.O=C(O)/C=C/C(=O)O [Compound 245]
unitSpec: h
reportedRelation: =
measurement: 7
//
compound: CCN(C(=O)c1cc(F)ccc1Oc1nncnc1N1CCC2(C1)CN([C@H](CCCNCCC(F)F)C(C)C)C2)C(C)C.O=C(O)/C=C/C(=O)O [Compound 114]
unitSpec: h
reportedRelation: =
measurement: 9.5
//
compound: CC(C)[C@@H](CCC(C)(C)N)N1CC2(CCN(c3ncnnc3Oc3ccc(F)cc3-c3cncnc3C3CC3)C2)C1 (single isomer, unassigned) [Compound 37]
unitSpec: h
reportedRelation: >
measurement: 12

###

The entries below are paired with their reported IC50.
tested on: KO-52 cells; test: Proliferation assay (spheroid growth, 8 days), KO-52 control cell line; type: cell-based, human; conditions: Homo sapiens, […], read-out: spheroid assay_OneTime KO-52 IC50
Where a name gives a salt, the structure may show the parent alone.
valueType: IC50

molecule: CCN(C(=O)c1cc(F)ccc1Oc1nncnc1N1CCC2(C1)CN([C@@H](CCC(C)(C)N)C(C)C)C2)C(C)C (single isomer, unassigned)
measurement: > 15 µM

molecule: CCN(C(=O)c1cc(F)ccc1Oc1nncnc1N1CCC2(C1)CN([C@H](CCCN(C)[C@@H](CO)COC)C(C)C)C2)C(C)C [Compound 167, fumarate]
measurement: > 15 µM

molecule: CCN(C(=O)c1cc(F)ccc1Oc1nncnc1N1CCC2(C1)CN(C(CCCNCC(C)(C)OC)C(C)C)C2)C(C)C (centres unmarked)
measurement: 7.18 µM

molecule: CCN(C(=O)c1cc(F)ccc1Oc1nncnc1N1CCC2(C1)CN([C@@H](CCC(C)(C)NC)C(C)C)C2)C(C)C (single isomer, unassigned) [Compound 36, hydrochloride]
measurement: > 15 µM

molecule: CC(C)[C@@H](CCCN(C)C)N1CC2(CCN(c3ncnnc3Oc3ccc(F)cc3C(=O)N(C(C)C)C(C)C)C2)C1 (single isomer, unassigned) [Compound 102]
measurement: > 15 µM

###

system: KO-52 cells; experiment: Proliferation assay (spheroid growth, 8 days), KO-52 control cell line; type: cell-based, human; settings: Homo sapiens, […], read-out: spheroid assay_OneTime KO-52 IC50
Structures can show the parent of a compound that is named as a salt.
Entries and their IC50

compound: CCN(C(=O)c1cc(F)ccc1Oc1nncnc1N1CCC2(C1)CN([C@H](CCN(C)CCOC)C(C)C)C2)C(C)C (single isomer, unassigned)
reportedRelation: >
IC50 (µM): 15
--
compound: CC(C)C(CCCN(C)C)N1CC2(CCN(c3ccnnc3Oc3ccc(F)cc3C(=O)N(C(C)C)C(C)C)C2)C1 (stereo not shown)
reportedRelation: =
IC50 (µM): 10.6
--
compound: CCN(C(=O)c1cc(F)ccc1Oc1nncnc1N1CCC2(C1)CN([C@H](CCCNCC(C)(C)OC)C(C)C)C2)C(C)C [Compound 135, fumarate]
reportedRelation: =
IC50 (µM): 9.69
--
compound: CC(C)[C@H](CCC(C)(C)N)N1CC2(CCN(c3ncnnc3Oc3ccc(F)cc3-c3cncnc3C3CC3)C2)C1 (single isomer, unassigned)
reportedRelation: >
IC50 (µM): 15
--
compound: COCCN(C)CCC[C@H](C(C)C)N1CC2(CCN(c3ncnnc3Oc3ccc(F)cc3C(=O)N(C(C)C)C(C)C)C2)C1 (single isomer, unassigned)
reportedRelation: =
IC50 (µM): 4.75
--
compound: CCN(C(=O)c1cc(F)ccc1Oc1nncnc1N1CCC2(C1)CN([C@H](CCN(C)CCC(N)=O)C(C)C)C2)C(C)C (single isomer, unassigned)
reportedRelation: >
IC50 (µM): 15
--
compound: CCN(C(=O)c1cc(F)ccc1Oc1nncnc1N1CCC2(C1)CN([C@H](CCCNC(=O)OC(C)OC(=O)C(C)C)C(C)C)C2)C(C)C (stereo partly shown)
reportedRelation: >
IC50 (µM): 15

###

Test system: KO-52 cells
Assay: Proliferation assay (spheroid growth, 8 days), KO-52 control cell line
Assay type: cell-based, human
Details: Homo sapiens, […], read-out: spheroid assay_OneTime KO-52 IC50
Procedure: The anti-proliferative effect of menin/MLL protein/protein interaction inhibitor test compounds was assessed in human leukemia cell lines. […] In order to assess the anti-proliferative effects, 200 MOLM14 cells, 200 OCI-AML3 cells or 300 KO-52 cells were seeded in 200 μl media per well in […] round bottom, ultra-low attachment plates (Costar, catalogue number 7007). […] Spheroid like growth was measured in real-time by live-cell imaging (IncuCyteZOOM, Essenbio, 4× objective) acquiring images at day 8. […]
Where a name gives a salt, the structure may show the parent alone.
valueType: IC50 (µM)

molecule: CCN(C(=O)c1cc(F)ccc1Oc1nncnc1N1CCC2(C1)CN([C@H](CCCN(C)C[C@@H](C)C(=O)N(C)C)C(C)C)C2)C(C)C (single isomer, unassigned)
assaySystem: KO-52 cells
reportedRelation: >
measurement: 15
//
molecule: CCN(C)C[C@H](O)C[C@H](C(C)C)N1CC2(CCN(c3ncnnc3Oc3ccc(F)cc3C(=O)N(CC)C(C)C)C2)C1.O=C(O)/C=C/C(=O)O (single isomer, unassigned)
assaySystem: KO-52 cells
reportedRelation: >
measurement: 15
//
molecule: COCCN(C)CCC[C@H](C(C)C)N1CC2(CCN(c3ccnnc3Oc3ccc(F)cc3C(=O)N(C(C)C)C(C)C)C2)C1 (single isomer, unassigned)
assaySystem: KO-52 cells
reportedRelation: =
measurement: 14
//
molecule: CCN(C(=O)c1cc(F)ccc1Oc1nncnc1N1CCC2(C1)CN([C@H](CCCN(C)CC(F)F)C(C)C)C2)C(C)C
assaySystem: KO-52 cells
reportedRelation: =
measurement: 10.5
//
molecule: CCN(C(=O)c1cc(F)ccc1Oc1nncnc1N1CCC2(C1)CN([C@H](CCCNCCOC)C(C)C)C2)C(C)C [Compound 397, fumarate]
assaySystem: KO-52 cells
reportedRelation: >
measurement: 15

###

Assay: Metabolic stability in mouse liver microsomes
Format: in vitro ADME
Conditions: mouse liver microsomes 0.5 mg/mL, 1 μM test compound, pH 7.4; read-out: Mouse LM Clint
Method: 4) Metabolic Stability in Human/Mouse Liver Microsomes The objective of this study is to measure in vitro metabolic stability of test compound(s) in human and mouse liver microsomes and provide quantitative information on the rate of metabolic turnover (i.e. determination of the apparent intrinsic clearance of test). Test items were prepared at a stock concentration of 10 mM in DMSO. […] The in vitro half-life (in vitro tin) was determined from the slope value: in vitro t1/2=−(0.693/k) […]
Counter-ions that a name gives are not always drawn.
The entries below come with measured microsomal CLint at 1 μM values attached.

compound: COCCNCCC[C@H](C(C)C)N1CC2(CCN(c3ncnnc3Oc3ccc(F)cc3C(=O)N(C(C)C)C(C)C)C2)C1 (single isomer, unassigned)
microsomal CLint at 1 μM: 13 µL/min/mg
//
compound: CCN(C)C[C@H](O)C[C@H](C(C)C)N1CC2(CCN(c3ncnnc3Oc3ccc(F)cc3C(=O)N(CC)C(C)C)C2)C1.O=C(O)/C=C/C(=O)O (single isomer, unassigned)
microsomal CLint at 1 μM: < 7.5 µL/min/mg
//
compound: CCN(C(=O)c1cc(F)ccc1Oc1nncnc1N1CCC2(C1)CN([C@H](CCCNCCC(F)F)C(C)C)C2)C(C)C.O=C(O)/C=C/C(=O)O
microsomal CLint at 1 μM: 15 µL/min/mg
//
compound: CCN(C(=O)c1cc(F)ccc1Oc1nncnc1N1CCC2(C1)CN([C@H](CCCN(C)CCNC(C)=O)C(C)C)C2)C(C)C.O=C(O)/C=C/C(=O)O [Compound 245, fumarate]
microsomal CLint at 1 μM: < 7.5 µL/min/mg
//
compound: CCN(C(=O)c1cc(F)ccc1Oc1nncnc1N1CCC2(C1)CN([C@H](CCCNCC(OC)OC)C(C)C)C2)C(C)C.O=C(O)/C=C/C(=O)O [Compound 104, fumarate]
microsomal CLint at 1 μM: < 7.5 µL/min/mg
//
compound: CCN(C(=O)c1cc(F)ccc1Oc1nncnc1N1CCC2(C1)CN([C@H](CCCNC(C)=O)C(C)C)C2)C(C)C [Compound 6, formate]
microsomal CLint at 1 μM: 28 µL/min/mg
//
compound: CC(C)[C@@H](CCC(C)(C)N)N1CC2(CCN(c3ncnnc3Oc3ccc(F)cc3-c3cncnc3C3CC3)C2)C1 (single isomer, unassigned)
microsomal CLint at 1 μM: < 7.5 µL/min/mg
//
compound: CCN(C(=O)c1cc(F)ccc1Oc1nncnc1N1CCC2(C1)CN([C@H](CCCN(C)CCC#N)C(C)C)C2)C(C)C
microsomal CLint at 1 μM: 44 µL/min/mg
//
compound: CCN(C(=O)c1cc(F)ccc1Oc1nnccc1N1CCC2(C1)CN([C@H](CCCN(C)CCOC)C(C)C)C2)C(C)C (single isomer, unassigned)
microsomal CLint at 1 μM: > 1000 µL/min/mg
//
compound: CCN(C(=O)c1cc(F)ccc1Oc1nncnc1N1CCC2(C1)CN([C@H](CCCNCCOC)C(C)C)C2)C(C)C [Compound 397, fumarate]
microsomal CLint at 1 μM: < 7.5 µL/min/mg
